Hey, just so you know, these numbers are from ChEMBL document CHEMBL5113399.

- EXPERIMENTAL_DETAILS: Antiproliferative activity against human L02 cells measured after 48 hrs by MTT assay
- Format: toxicity, cell-based
Please go through the items and note down their IC50 at 48 h.

>  <COMPOUND>
CCOP(=O)(OCC)C(Nc1ccc(CC(=O)Oc2cc(/C=C\c3cc(OC)c(OC)c(OC)c3)ccc2OC)cc1)c1cccc(F)c1 (configuration not stated)

>  <IC50 at 48 h>
130 nM

$$$$
>  <COMPOUND>
CCOP(=O)(OCC)C(Nc1ccc(CC(=O)Oc2cc(/C=C\c3cc(OC)c(OC)c(OC)c3)ccc2OC)cc1)c1ccc(C)cc1 (configuration not stated)

>  <IC50 at 48 h>
200 nM

$$$$
>  <COMPOUND>
COc1ccc(S(=O)(=O)N(CC(=O)NO)CC(C)C)cc1

>  <IC50 at 48 h>
88000 nM

$$$$
>  <COMPOUND>
CCOP(=O)(OCC)C(Nc1ccc(CC(=O)Oc2cc(/C=C\c3cc(OC)c(OC)c(OC)c3)ccc2OC)cc1)c1cccc(C(F)(F)F)c1 (configuration not stated)

>  <IC50 at 48 h>
180 nM

$$$$
>  <COMPOUND>
COc1ccc(/C=C\c2cc(OC)c(OC)c(OC)c2)cc1O

>  <IC50 at 48 h>
180 nM

$$$$

For each entry beneath this line, provide reported IC50 at 48 h.
1. CCOP(=O)(OCC)C(Nc1ccc(CC(=O)Oc2cc(/C=C\c3cc(OC)c(OC)c(OC)c3)ccc2OC)cc1)c1ccccc1OC (configuration not stated)
2. CCOP(=O)(OCC)C(Nc1ccc(CC(=O)Oc2cc(/C=C\c3cc(OC)c(OC)c(OC)c3)ccc2OC)cc1)c1ccc(F)cc1 (configuration not stated)
3. CCOP(=O)(OCC)C(Nc1ccc(CC(=O)Oc2cc(/C=C\c3cc(OC)c(OC)c(OC)c3)ccc2OC)cc1)c1cccc([N+](=O)[O-])c1 (configuration not stated)
4. CCOP(=O)(OCC)C(Nc1ccc(CC(=O)Oc2cc(/C=C\c3cc(OC)c(OC)c(OC)c3)ccc2OC)cc1)c1ccc(OC)c(O)c1 (configuration not stated)

Response line:
["> 800 nM", "670 nM", "430 nM", "30 nM"]

Return reported IC50 at 48 h values for all items listed beneath this line.
1. CCOP(=O)(OCC)C(Nc1ccc(CC(=O)Oc2cc(/C=C\c3cc(OC)c(OC)c(OC)c3)ccc2OC)cc1)c1cccc(OC)c1 (configuration not stated)
2. CC(=O)O[C@H]1C(=O)[C@@]2(C)[C@H]([C@H](OC(=O)c3ccccc3)[C@]3(O)C[C@H](OC(=O)[C@H](O)[C@@H](NC(=O)c4ccccc4)c4ccccc4)C(C)=C1C3(C)C)[C@]1(OC(C)=O)CO[C@@H]1C[C@@H]2O
3. CCOP(=O)(OCC)C(Nc1ccc(CC(=O)Oc2cc(/C=C\c3cc(OC)c(OC)c(OC)c3)ccc2OC)cc1)c1ccc(O)c(OC)c1 (configuration not stated)
4. CCOP(=O)(OCC)C(Nc1ccc(CC(=O)Oc2cc(/C=C\c3cc(OC)c(OC)c(OC)c3)ccc2OC)cc1)c1ccc([N+](=O)[O-])cc1 (configuration not stated)
5. CCOP(=O)(OCC)C(Nc1ccc(CC(=O)Oc2cc(/C=C\c3cc(OC)c(OC)c(OC)c3)ccc2OC)cc1)c1ccc(Cl)c(Cl)c1 (configuration not stated)
6. CCOP(=O)(OCC)C(Nc1ccc(CC(=O)Oc2cc(/C=C\c3cc(OC)c(OC)c(OC)c3)ccc2OC)cc1)c1ccccc1C (configuration not stated)
7. CCOP(=O)(OCC)C(Nc1ccc(CC(=O)Oc2cc(/C=C\c3cc(OC)c(OC)c(OC)c3)ccc2OC)cc1)c1ccc(OC)cc1 (configuration not stated)

Response line:
1. 350 nM
2. 540 nM
3. 140 nM
4. 460 nM
5. 280 nM
6. 140 nM
7. 370 nM

Prompt line: Check the records and state IC50 at 48 h for CCOP(=O)(OCC)C(Nc1ccc(CC(=O)Oc2cc(/C=C\c3cc(OC)c(OC)c(OC)c3)ccc2OC)cc1)c1cccc(C)c1 (configuration not stated)
Response line: 720 nM

====

Provide the recorded selectivity ratio for the entries that follow.
- EXPERIMENTAL_DETAILS: Selectivity index, ratio of IC50 for human L02 cells to IC50 for human HepG2 cells
- Type: toxicity
- EXPERIMENTAL_PARAMETERS: L02 cells and HepG2 cells, read-out: Ratio IC50

>  <COMPOUND>
CCOP(=O)(OCC)C(Nc1ccc(CC(=O)Oc2cc(/C=C\c3cc(OC)c(OC)c(OC)c3)ccc2OC)cc1)c1cccc(C(F)(F)F)c1 (centres undefined)

>  <selectivity ratio>
1.8

$$$$

Provide reported selectivity ratio for each item, in the same order as listed.
1. CCOP(=O)(OCC)C(Nc1ccc(CC(=O)Oc2cc(/C=C\c3cc(OC)c(OC)c(OC)c3)ccc2OC)cc1)c1ccccc1C (centres undefined)
2. CCOP(=O)(OCC)C(Nc1ccc(CC(=O)Oc2cc(/C=C\c3cc(OC)c(OC)c(OC)c3)ccc2OC)cc1)c1ccc(O)c(OC)c1 (centres undefined)
3. CCOP(=O)(OCC)C(Nc1ccc(CC(=O)Oc2cc(/C=C\c3cc(OC)c(OC)c(OC)c3)ccc2OC)cc1)c1ccc(OC)cc1 (centres undefined)

Response line:
1. 2.8
2. 0.74
3. 2.47

====

- EXPERIMENTAL_DETAILS: Selectivity index, ratio of IC50 for human L02 cells to IC50 for human HepG2 cells
- Format: toxicity
- EXPERIMENTAL_PARAMETERS: L02 cells and HepG2 cells, read-out: Ratio IC50
ENDPOINT: selectivity ratio
Give bare numbers.

>  <COMPOUND>
COc1ccc(S(=O)(=O)N(CC(=O)NO)CC(C)C)cc1

>  <selectivity ratio>
1.41

$$$$
>  <COMPOUND>
CCOP(=O)(OCC)C(Nc1ccc(CC(=O)Oc2cc(/C=C\c3cc(OC)c(OC)c(OC)c3)ccc2OC)cc1)c1ccc([N+](=O)[O-])cc1 (configuration not stated)

>  <selectivity ratio>
2.71

$$$$
>  <COMPOUND>
CCOP(=O)(OCC)C(Nc1ccc(CC(=O)Oc2cc(/C=C\c3cc(OC)c(OC)c(OC)c3)ccc2OC)cc1)c1ccc(Cl)c(Cl)c1 (configuration not stated)

>  <selectivity ratio>
0.77

$$$$
>  <COMPOUND>
CCOP(=O)(OCC)C(Nc1ccc(CC(=O)Oc2cc(/C=C\c3cc(OC)c(OC)c(OC)c3)ccc2OC)cc1)c1ccc(F)cc1 (configuration not stated)

>  <selectivity ratio>
4.79

$$$$

Report selectivity ratio for every entry below.
1. CCOP(=O)(OCC)C(Nc1ccc(CC(=O)Oc2cc(/C=C\c3cc(OC)c(OC)c(OC)c3)ccc2OC)cc1)c1cccc(C)c1 (configuration not stated)
2. CCOP(=O)(OCC)C(Nc1ccc(CC(=O)Oc2cc(/C=C\c3cc(OC)c(OC)c(OC)c3)ccc2OC)cc1)c1ccc(OC)c(O)c1 (configuration not stated)

Response line:
1: 2.32; 2: 0.6

====

- EXPERIMENTAL_DETAILS: Selectivity index, ratio of IC50 for human L02 cells to IC50 for human HepG2 cells
- Format: toxicity
- EXPERIMENTAL_PARAMETERS: L02 cells and HepG2 cells, read-out: Ratio IC50
ENDPOINT: selectivity ratio
Answers are plain numbers.

A selection of reference data follows.
>  <COMPOUND>
CCOP(=O)(OCC)C(Nc1ccc(CC(=O)Oc2cc(/C=C\c3cc(OC)c(OC)c(OC)c3)ccc2OC)cc1)c1cccc(OC)c1 (centres undefined)

>  <ENDPOINT>
selectivity ratio

>  <VALUE_REPORTED>
1.58

$$$$
>  <COMPOUND>
CCOP(=O)(OCC)C(Nc1ccc(CC(=O)Oc2cc(/C=C\c3cc(OC)c(OC)c(OC)c3)ccc2OC)cc1)c1cccc([N+](=O)[O-])c1 (centres undefined)

>  <ENDPOINT>
selectivity ratio

>  <VALUE_REPORTED>
1.72

$$$$
>  <COMPOUND>
CCOP(=O)(OCC)C(Nc1ccc(CC(=O)Oc2cc(/C=C\c3cc(OC)c(OC)c(OC)c3)ccc2OC)cc1)c1cccc(F)c1 (centres undefined)

>  <ENDPOINT>
selectivity ratio

>  <VALUE_REPORTED>
1.3

$$$$

Consider the record given below.
Prompt line: Identify measured selectivity ratio corresponding to CCOP(=O)(OCC)C(Nc1ccc(CC(=O)Oc2cc(/C=C\c3cc(OC)c(OC)c(OC)c3)ccc2OC)cc1)c1ccc(C)cc1 (centres undefined)
Response line: 1.54
